Where do the numbers come from? From PubChem BioAssay.

For each entry below, report its z-score value.
- assay-name: basal HepG2 mitochondrial membrane potential changes, profiling panel, cell-based, JC-1 fluorescence, 24 h, 100 nL compound (AID 1167); note: test concentration not given here
- particulars: higher = more signal

See these solved cases before continuing.
compound	z-score
CC(C)OC(=O)C=C1C[C@@H](c2ccccc2C(F)(F)F)O[C@@H](c2ccccc2C(F)(F)F)O1	0.752
COc1ccc(C(=O)O[C@H]2CC[C@]3(C)C4=C(CCC3C2(C)C)[C@]2(C)CC[C@H]([C@H](C)CCCC(C)C)[C@@]2(C)CC4)cc1 (some centres undefined)	2.19
C=C(COC)/C(=C/C[C@H](OC(=O)c1ccncc1)c1ccc(OCCO)cc1)c1cnc2ccccc2c1	-0.232
CCOC(=O)C[C@H]1[C@H](OC(=O)c2cc3ccccc3oc2=O)[C@@H](NC(=O)C2CCCCC2)c2cc(OCCCO)ccc2N1C(=O)c1ccccc1	1.36
COc1cc(OC)c(C(O)C2C=CC3C(=O)NC(=O)C3N2Nc2ccc(Cl)cc2Cl)cc1Br (centres undefined)	-2.87
CC1(C)[C@@H]2CC(C(O)C3C=CC4C(=O)N(c5ccccc5)C(=O)C4N3Nc3ccccc3)=C[C@H]1C2 (some centres undefined)	-1.79
C=CCNC(=O)[C@H]1[C@@H]2C(=O)O[C@@H](c3ccccc3)[C@@H](c3ccccc3)N2[C@@H](c2ccc(O)cc2)[C@]12C(=O)N(C(=O)OCCOC)c1ccc(C#CCNC(N)=O)cc12	-1.33
C=CCC(OC(C)=O)[C@@H]1[C@@H](N(Cc2ccc(-c3cccc(C(F)(F)F)c3)o2)C(=O)c2ccc(-c3ccccc3)cc2)c2cc(OCCCO)ccc2N1C(=O)c1ccc(-c2ccccc2)cc1 (some centres undefined)	1.25
COCCOC(=O)N1C(=O)[C@@]2(c3cc(C#CC4=CCCCC4)ccc31)[C@H](C(=O)Nc1nc3ccccc3s1)[C@H]1C(=O)O[C@H](c3ccccc3)[C@H](c3ccccc3)N1[C@@H]2c1ccc(OCCO)cc1	-2.95
C=C(C)C1C(=C)CN([C@H](CO)c2ccccc2)C1=O (some centres undefined)	-0.113

Would you mind giving z-score for every compound in the list below?
1. COc1cc2c(cc1O)C(C1CC1)N(Cc1cc3c(cc1Br)OCO3)CC2 (centres undefined)
2. C=CCC(OC(C)=O)[C@@H]1[C@@H](N(Cc2cccc3ccccc23)C(=O)c2ccc(-c3ccccc3)cc2)c2cc(OCCCO)ccc2N1C(=O)Cc1ccc(OC)cc1 (some centres undefined)
3. N#Cc1ccc(NN2C(C(O)c3c(F)cccc3Cl)C=CC3C(=O)N(c4ccccc4)C(=O)C32)cc1 (centres undefined)

[-1.85, 2.05, -1.41]

Find the recorded z-score belonging to "COC(=O)C(CC#Cc1ccc2c(c1)[C@]1(C(=O)N2)[C@H](c2ccc(O)cc2)N2[C@H](c3ccccc3)[C@H](c3ccccc3)OC(=O)[C@H]2[C@@H]1C(=O)Nc1nc2ccccc2s1)C(=O)OC" and report it.
-1.44

---

- assay-name: basal 3T3-L1 adipocyte mitochondrial potential changes, profiling panel, cell-based, JC-1 fluorescence, 3T3-L1 adipocytes, 24 h, 100 nL compound (AID 1168); note: test concentration not given here
- particulars: JC-1 mitochondrial fluorescence, higher = more signal, called active from +8 up or from −8 down
reported-metric: z-score
Numbers only.

# count of solved cases: 10
compound	reported-metric	test-result
COCCOC(=O)N1C(=O)[C@@]2(c3cc(C#CC4=CCCCC4)ccc31)[C@H](C(N)=O)[C@H]1C(=O)O[C@H](c3ccccc3)[C@H](c3ccccc3)N1[C@@H]2c1ccc(OCCO)cc1	z-score	1.22
COc1ccc(CCN2C(=O)[C@@]3(Cc4ccccc42)c2ccccc2C(=O)N(Cc2ccccc2C(F)(F)F)[C@H]3c2ccc(CO)cc2)cc1	z-score	-0.753
O=C1OCC=C[C@H]2OC34C=CCN(CCN5CCOCC5)C(=O)[C@H]3N(CCCO)C(=O)[C@@H]4[C@@H]12 (some centres undefined)	z-score	0.584
O=C1OCCC/C=C\[C@H]2OC34C=CCN(Cc5ccccc5)C(=O)[C@H]3N(CCCCCCO)C(=O)[C@@H]4C12 (some centres undefined)	z-score	0.948
CC(=O)n1cc(C(O)C2C=CC3C(=O)N(C)C(=O)C3N2Nc2ccccc2)c2ccccc21 (centres undefined)	z-score	-0.454
CCCCCC1=C2CNC(CCC)(C(=O)OC)C=C2C(C)C1=O (centres undefined)	z-score	-0.283
C#CCN(Cc1ccccc1Br)C(/C=C/c1ccccc1)CO (centres undefined)	z-score	0.165
Cc1ccc(C(C)CC(O)C2C=CC3C(=O)N(c4ccccc4)C(=O)C3N2Nc2ccc([N+](=O)[O-])cc2)o1 (centres undefined)	z-score	-2.12
CN(C)C(=O)[C@]1(Cc2ccccc2CN=[N+]=[N-])N=C(c2ccc(OCCCO)cc2)O[C@@H]1c1ccccc1CN=[N+]=[N-]	z-score	-0.735
CCN(CC)c1ccc(N2CC=CC34O[C@@H]5/C=C\CCCOC(=O)C5[C@H]3C(=O)N(CCO)[C@@H]4C2=O)cc1 (some centres undefined)	z-score	-0.381

Would you mind listing z-score for each of the following compounds?
1. O=C1O[C@H](c2ccccc2)[C@H](c2ccccc2)N2[C@H]1[C@@H](C(=O)N1CCN(c3ncccn3)CC1)[C@]1(C(=O)Nc3ccc(C#CC4=CCCCC4)cc31)[C@H]2c1ccc(O)cc1
2. C=CCOC(=O)[C@@H]1[C@H]2C(=O)O[C@H](c3ccccc3)[C@H](c3ccccc3)N2[C@H](c2ccc(OCCOC(=O)[C@@H]3C[C@@H]4C(=O)N[C@@H](CCCC[N+](C)(C)C)C(=O)N4[C@@H]3c3cccc(OCCO)c3)cc2)[C@@]12C(=O)Nc1ccc(I)cc12
3. CN(C)C(=O)[C@]1(Cc2ccccc2N=[N+]=[N-])N=C(c2ccc(OCCCO)cc2)O[C@@H]1c1ccccc1
4. COC(=O)c1c(CC[C@@H](CO)NC(=O)N[C@@H](C)Cn2cc(C3(O)CCCCC3)nn2)oc(C(C)=O)c1C(=O)OC

1. 1.44
2. 0.902
3. 0.6
4. 1.17

---

- assay-name: A549 lung cancer cell viability effects, profiling panel, resazurin fluorescence, 24 h, PK04 Diversity Set (AID 1171); note: test concentration not given here
- particulars: higher = more signal, called active from +8 up or from −8 down
Output label 1 for z-score not less than -0.3; output label 0 otherwise.

Worked examples, 3 compounds total:
compound	label-class
CCCCC=C[C@@H](NC(=O)Oc1cccc(C(F)(F)F)c1)c1ccccc1	label 0
CCCCCN1CC=CC23O[C@@H]4/C=C\CCCOC(=O)C4[C@H]2C(=O)N(C(CO)C(C)C)[C@@H]3C1=O (some centres not stated)	label 1
CCOC(=O)[C@H]1C/C=C/C[C@H](C(=O)OCC)C(=O)O[C@H]2[C@@H](OC)O[C@H](CO)[C@@H](OC(=O)Nc3cccc(F)c3)[C@@H]2OC1=O	label 0

Does the reported z-score for "C=CC[C@@]1(C(N)=O)N=C(c2ccc(OCCCO)cc2)O[C@@H]1c1ccccc1CN=[N+]=[N-]" fall at or above the -0.3 mark?
label 1

Now this one: CCOc1cc(C(O)C2C=CC3C(=O)N(c4ccccc4)C(=O)C3N2Nc2ccccc2)ccc1O (configuration not stated)
label 1

Same question, "COCCOC(=O)N1C(=O)[C@@]2(c3ccccc31)[C@H](c1ccc(O)cc1)N1[C@H](c3ccccc3)[C@H](c3ccccc3)OC(=O)[C@H]1[C@@H]2C(=O)NC[C@H](O)c1ccccc1" this time
label 0

What do you get for "COCCCN1C(=O)[C@@]2(c3ccc([N+](=O)[O-])cc3)CC(=O)N(C3CCCCC3)[C@@H]2c2ccc(CO)cc21" ?
label 0

---

- Test system: Sonic hedgehog protein (Shh)
- assay-name: small-molecule binders of Shh protein, primary screen, biochemical, small-molecule microarray, 635/667 nm fluorescence (AID 1151);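 note: Shh protein binding to compounds spotted on small-molecule microarray slides; score combines spot fluorescence intensity with signal-to-noise across triplicate slides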
- particulars: small-molecule microarray binding, 635 nm fluorescence; higher = more signal
Note to self: values exactly at 0.7 are Y. So composite z-score at or above 0.7 is Y, below is N.

Use these answered entries as a reference point.
compound	label-class
CN(C)C(=O)[C@]1(Cc2ccccc2N=[N+]=[N-])N=C(c2ccc(OCCCO)cc2)O[C@@H]1c1ccccc1	N
CCOC(=O)[C@H]1CC=C2CC1C(=O)N1CCC[C@@H]1[C@@H]2O[Si](C)(C)C(C)(C)C (stereo partly specified)	N
COc1ccc(C(=O)Nc2cccc(CN3C(=O)[C@]4(O[C@H](CCO)[C@@H]([Si](C)(C)c5ccc(OC)cc5)[C@@H]4C)c4ccccc43)c2)cc1	Y
COCCOC(=O)N1C(=O)[C@@]2(c3cc(C#CCCO)ccc31)[C@H](C(=O)N1CCc3cc(OC)c(OC)cc3C1)[C@H]1C(=O)O[C@H](c3ccccc3)[C@H](c3ccccc3)N1[C@@H]2c1ccc(O)cc1	Y
CN1C2C=C(CCCO)C(C3C(=O)N(C(N)=O)C(=O)C32)C1c1ccc(CN2CCCC2)cc1 (stereo unspecified)	N
CCOC1=C2C(CN(S(=O)(=O)c3ccc(C)cc3)C2c2ccc(C)cc2)C2C(=O)N(c3ccccc3)C(=O)C2C1 (stereo unspecified)	N

Decide: composite z-score of "[N-]=[N+]=NCc1ccccc1C[C@]1(C(=O)O)N=C(c2ccc(OCCCO)cc2)O[C@H]1c1ccccc1N=[N+]=[N-]" >= 0.7?
N

Let us now turn to "[N-]=[N+]=NCc1ccccc1[C@@H]1OC(c2ccc(OCCCO)cc2)=N[C@]1(CCS(=O)(=O)c1ccccc1)C(=O)NCc1ccccc1"
Y

Then what about the compound "CC(C)(C)OC(=O)CC[C@@]1(C(N)=O)N=C(c2ccc(OCCCO)cc2)O[C@@H]1c1ccccc1" ?
N

And then "CCOC(=O)[C@H]1C/C=C/C[C@H](C(=O)OCC)C(=O)O[C@H]2[C@@H](OC)O[C@H](CO)[C@@H](OC(=O)Nc3ccc(C#N)cc3)[C@@H]2OC1=O" , what is it?
N

Entry to check: [N-]=[N+]=NCc1ccccc1C[C@]1(C(=O)NCC(O)CO)N=C(c2ccc(OCCCO)cc2)O[C@H]1c1ccccc1 (stereo partly specified)
N

Next compound: "COCCCNC(=O)[C@@]1(Cc2ccccc2)N=C(c2ccc(OCCCO)cc2)O[C@H]1c1ccccc1"
N

Request: "COCCOC(=O)N1C(=O)[C@@]2(c3cc(C#CC4=CCCCC4)ccc31)[C@H](C(N)=O)[C@H]1C(=O)O[C@H](c3ccccc3)[C@H](c3ccccc3)N1[C@@H]2c1ccc(OCCO)cc1"
Y

Please do the same for "CCOC(=O)C[C@H]1[C@H](OC(=O)c2ccc(C(=O)c3ccccc3)cc2)[C@@H](NC(=O)c2ccc(-c3ccccc3)cc2)c2cc(OCCCO)ccc2N1C(=O)c1ccccc1" as well.
Y

Same lookup for "O=C1O[C@H](c2ccccc2)[C@H](c2ccccc2)N2[C@H]1[C@@H](C(=O)O)[C@]1(C(=O)Nc3ccc(C#CC4=CCCCC4)cc31)[C@H]2c1ccccc1OCCO" , please.
Y

Thanks! And "C#CCNC(=O)[C@H](Cc1ccccc1)NC(=O)CCC(=O)O" ?
N

Would you mind doing "CO[C@H]1O[C@H](CO)[C@@H](OC(=O)Nc2ccc(Br)cc2)[C@H](OC(=O)c2cc3ccccc3[nH]2)[C@H]1OC(=O)c1cc2ccccc2[nH]1" as well?
Y

Record: "C=CCOC(=O)[C@H]1[C@@H]2C(=O)O[C@@H](c3ccccc3)[C@@H](c3ccccc3)N2[C@@H](c2ccc(OCCOC(=O)[C@H]3C[C@H]4C(=O)N5CCC[C@H]5C(=O)N4[C@H]3c3ccc(O)cc3)cc2)[C@]12C(=O)Nc1ccc(I)cc12"
Y
